meta.source: ChEMBL document CHEMBL4513216

Tested on: Plasmodium berghei
testSummary: Screen against P. berghei liver stage (PbLuc), transformed with Luciferase, at 2uM
Assay type: functional, HepG2
conditionParameters: tested at 2 uM
The campaign covered roughly 68,000 compounds. About 2,700 (4%) showed an effect of 50% or more. This is one part of a sample in which strong results are shown more often than they occur.
Checkbox rule: INHIBITION lower than 20% = 1; INHIBITION not lower than 20% = -1.

Known results for compounds:
N#Cc1nc(COc2ccc3c(c2)OCO3)oc1N1CCCC1 :: 1
Cn1ccnc1C(=O)N1CCOC(Cc2ccccc2Cl)C1 (centres undefined) :: -1

I'd appreciate it if you could check whether Cc1c(C2N3CC4(C(C)C)CN2CC(C(C)C)(C3)C4=O)[nH]c(=O)[nH]c1=O (centres undefined) has INHIBITION smaller than 20%. 1

I'd appreciate it if you could check whether `O=C(CCc1ccccc1Br)NCC(=O)NCc1ccccc1` has INHIBITION smaller than 20%. 1

I'd appreciate it if you could check whether `CCN(C(=O)CN(CC(N)=O)C(C)C)C1=CCCC1` has INHIBITION smaller than 20%. -1

I'd appreciate it if you could check whether `Cn1ccnc(Sc2ccccc2)c1=O` has INHIBITION smaller than 20%. -1

I'd appreciate it if you could check whether `Cc1nccn1CC1CCN(C(=O)c2ccccc2)CC1` has INHIBITION smaller than 20%. 1

I'd appreciate it if you could check whether COc1cc(C(=O)N(C2CC2)C2CC(=O)NC2=O)ccc1C (centres undefined) has INHIBITION smaller than 20%. 1
